Biological target: SST2 (Homo sapiens, UniProt P30874)
Construct: host or cells: PathHunter CHO-K1 SST2 cells
Sequence (P30874 whole entry): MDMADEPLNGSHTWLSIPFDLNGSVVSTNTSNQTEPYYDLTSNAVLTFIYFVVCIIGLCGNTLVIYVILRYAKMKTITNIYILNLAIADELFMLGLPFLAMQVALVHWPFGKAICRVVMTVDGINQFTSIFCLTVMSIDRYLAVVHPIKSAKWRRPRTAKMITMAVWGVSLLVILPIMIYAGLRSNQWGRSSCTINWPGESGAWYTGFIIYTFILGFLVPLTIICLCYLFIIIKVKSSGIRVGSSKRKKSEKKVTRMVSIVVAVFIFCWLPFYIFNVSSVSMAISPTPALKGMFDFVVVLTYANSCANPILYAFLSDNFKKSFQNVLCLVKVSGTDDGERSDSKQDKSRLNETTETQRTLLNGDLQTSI
Assay: PathHunter CHO-K1 SST2 internalization assay
Format: cell-based
Conditions: PathHunter CHO-K1 SST2, 90 min; read-out: Internalization EC50
Starred links: 1 amine or outer side, 2 acyl side, 3 side chain; linkers in the order of their positions; H or OH if unused. Non-standard residues stand in square brackets, D forms with d. Residues, ends and D or L forms follow the SMILES beside them. *: point of attachment. X1 = Cc1cc(F)cc(-c2cnc(NCCNC(=O)CCOCCC(=O)*)c(-c3nc4ccc(Cl)cc4[nH]3)c2N2CCC(N)CC2)c1; Dolaproine = CO[C@@H]([C@@H]1CCCN1)[C@@H](C)C(=O)O; Dil = CC[C@H](C)[C@H](NC)[C@@H](CC(=O)O)OC; PABC = O=C(OCc1ccc(N[*:1])cc1)[*:2]; X2 = C[C@@H](N*)[C@@H](O)c1ccccc1; Cya = N[C@@H](CS(=O)(=O)O)C(=O)O; Cit = NC(=O)NCCC[C@H](N)C(=O)O; NMeV = CN[C@H](C(=O)O)C(C)C
measurement.type: pEC50
When answering, recall that pEC50 equals minus log10 of the concentration in mol/L, and write that number alone.

The following compounds have reported results that may help.
>  <compound>
CC[C@H](C)[C@@H]([C@@H](CC(=O)N1CCC[C@H]1[C@H](OC)[C@@H](C)C(=O)N[C@H](C)[C@@H](O)c1ccccc1)OC)N(C)C(=O)[C@@H](NC(=O)[C@H](C(C)C)N(C)C(=O)OCc1ccc(NC(=O)[C@H](CCCNC(N)=O)NC(=O)[C@@H](NC(=O)[C@H](CS(=O)(=O)O)NC(=O)[C@H](CCC(=O)O)NC(=O)CCOCCC(=O)NCCNc2ncc(-c3cc(C)cc(F)c3)c(N3CCC(N)CC3)c2-c2nc3ccc(Cl)cc3[nH]2)C(C)C)cc1)C(C)C [Compound 115] (X1-E[Cya]V[Cit][PABC][NMeV]V[Dil][Dolaproine]-X2)

>  <pEC50>
8.44

$$$$
>  <compound>
CC[C@H](C)[C@@H]([C@@H](CC(=O)N1CCC[C@H]1[C@H](OC)[C@@H](C)C(=O)N[C@H](C)[C@@H](O)c1ccccc1)OC)N(C)C(=O)[C@@H](NC(=O)[C@H](C(C)C)N(C)C(=O)OCc1ccc(NC(=O)[C@H](C)NC(=O)[C@@H](NC(=O)CCOCCOCCC(=O)NCCNc2ncc(-c3cc(C)cc(F)c3)c(N3CCC(N)CC3)c2-c2nc3ccc(Cl)cc3[nH]2)C(C)C)c(O[C@@H]2O[C@H](C(=O)O)[C@@H](O)[C@H](O)[C@H]2O)c1)C(C)C

>  <pEC50>
8.28

$$$$
>  <compound>
CC[C@H](C)[C@@H]([C@@H](CC(=O)N1CCC[C@H]1[C@H](OC)[C@@H](C)C(=O)N[C@H](C)[C@@H](O)c1ccccc1)OC)N(C)C(=O)[C@@H](NC(=O)[C@H](C(C)C)N(C)C(=O)OCc1ccc(NC(=O)[C@H](CCCNC(N)=O)NC(=O)[C@@H](NC(=O)CNC(=O)[C@H](CCC(=O)O)NC(=O)[C@H](CCC(=O)O)NC(=O)CCOCCC(=O)NCCNc2ncc(-c3cc(C)cc(F)c3)c(N3CCC(N)CC3)c2-c2nc3ccc(Cl)cc3[nH]2)C(C)C)cc1)C(C)C [Compound 111] (X1-EEGV[Cit][PABC][NMeV]V[Dil][Dolaproine]-X2)

>  <pEC50>
7.66

$$$$

Data request: GET /values?readout=pEC50&item= `CC[C@H](C)[C@@H]([C@@H](CC(=O)N1CCC[C@H]1[C@H](OC)[C@@H](C)C(=O)N[C@H](C)[C@@H](O)c1ccccc1)OC)N(C)C(=O)[C@@H](NC(=O)[C@H](C(C)C)N(C)C(=O)OCc1ccc(NC(=O)[C@H](C)NC(=O)[C@@H](NC(=O)[C@H](CCC(=O)O)NC(=O)CCCCCC(=O)NCCNc2ncc(-c3cc(C)cc(F)c3)c(N3CCC(N)CC3)c2-c2nc3ccc(Cl)cc3[nH]2)C(C)C)cc1C(=O)NCCN)C(C)C`
Data returned: 8.57

###

Assay: H524 tumor biodistribution model: tumor and plasma levels of SMDC and MMAE by LC/MS-MS
Format: in vivo, female Athymic nude mice
Conditions: MMAE level 4 h after 500 nmol/kg IV of the conjugate, H524 tumor bearing nude mice
measurement.type: MMAE Tumor
Answer format: number, then unit.

Data request: Recorded MMAE Tumor of `CC[C@H](C)[C@@H]([C@@H](CC(=O)N1CCC[C@H]1[C@H](OC)[C@@H](C)C(=O)N[C@H](C)[C@@H](O)c1ccccc1)OC)N(C)C(=O)[C@@H](NC(=O)[C@H](C(C)C)N(C)C(=O)OCc1ccc(NC(=O)[C@H](CCCNC(N)=O)NC(=O)[C@@H](NC(=O)[C@@H](CS(=O)(=O)O)NC(=O)CCOCCC(=O)NCCNc2ncc(-c3cc(C)cc(F)c3)c(N3CCC(N)CC3)c2-c2nc3ccc(Cl)cc3[nH]2)C(C)C)cc1C(=O)NCCN)C(C)C` , please.
Data returned: 123 nM

###

Biological target: human somatostatin receptor subtype 2 (Homo sapiens)
Construct: expressed in transfected cells
Sequence (P30874 whole entry): as above
Assay: Functional cAMP assay for SSTR2 agonists (HTRF) in CHO-K1 cells
Type: cell-based
Details: CHO-K1 cells stably expressing human SST2, 20 min; read-out: hSST2 cAMP Avg EC50
Measured EC50, listed per entry.
Hi, when you answer, please include the unit after the number. Thanks!

>  <molecule>
CCC(C)C(C(CC(=O)N1CCCC1C(OC)C(C)C(=O)NC(C)C(O)c1ccccc1)OC)N(C)C(=O)C(NC(=O)C(C(C)C)N(C)C(=O)OCc1ccc(NC(=O)[C@H](CCCNC(N)=O)NC(=O)[C@@H](NC(=O)CCOCCC(=O)NCCNc2ncc(-c3cc(C)cc(F)c3)c(N3CCC(N)CC3)c2-c2nc3ccc(C(N)=O)cc3[nH]2)C(C)C)cc1)C(C)C (stereo in doubt)

>  <assay.result>
2 nM

$$$$

Could you now look at the following molecule, please?
Data request: Look at this molecule and give its reported EC50. COc1cc2cc(c1Cl)N(C)C(=O)CC(OC(=O)[C@@H](C)N(C)C(=O)CCSSCCC(=O)NCCNc1ncc(-c3cc(C)cc(F)c3)c(N3CCC(N)CC3)c1-c1nc3ccc(C(N)=O)cc3[nH]1)[C@]1(C)OC1[C@@H](C)C1C[C@@](O)(NC(=O)O1)[C@H](OC)/C=C/C=C(\C)C2 (some centres unmarked)
Data returned: 0.66 nM

###

Recorded EC50 by entry
Molecular target: human somatostatin receptor subtype 2 (Homo sapiens)
Construct: expressed in transfected cells
Assay: Functional cAMP assay for SSTR2 agonists (HTRF) in CHO-K1 cells
Assay type: cell-based
Conditions: CHO-K1 cells stably expressing human SST2, 20 min; read-out: hSST2 cAMP Avg EC50
Starred links: 1 amine or outer side, 2 acyl side, 3 side chain; linkers in the order of their positions; H or OH if unused. Non-standard residues stand in square brackets, D forms with d. Residues, ends and D or L forms follow the SMILES beside them. *: point of attachment. X1 = Cc1cc(F)cc(-c2cnc(NCCNC(=O)CCOCCC(=O)*)c(-c3nc4ccc(Cl)cc4[nH]3)c2N2CCC(N)CC2)c1; Dolaproine = CO[C@@H]([C@@H]1CCCN1)[C@@H](C)C(=O)O; Dil = CC[C@H](C)[C@H](NC)[C@@H](CC(=O)O)OC; PABC = O=C(OCc1ccc(N[*:1])cc1)[*:2]; X2 = C[C@@H](N*)[C@@H](O)c1ccccc1; Cit = NC(=O)NCCC[C@H](N)C(=O)O; NMeV = CN[C@H](C(=O)O)C(C)C
Report the figure in nM without appending any unit label.

>  <compound>
CC[C@H](C)[C@@H]([C@@H](CC(=O)N1CCC[C@H]1[C@H](OC)[C@@H](C)C(=O)N[C@H](C)[C@@H](O)c1ccccc1)OC)N(C)C(=O)[C@@H](NC(=O)[C@H](C(C)C)N(C)C(=O)OCc1ccc(NC(=O)[C@H](CCCNC(N)=O)NC(=O)[C@@H](NC(=O)[C@H](CCC(=O)O)NC(=O)CCOCCC(=O)NCCNc2ncc(-c3cc(C)cc(F)c3)c(N3CCC(N)CC3)c2-c2nc3ccc(Cl)cc3[nH]2)C(C)C)cc1)C(C)C [Compound 36] (X1-EV[Cit][PABC][NMeV]V[Dil][Dolaproine]-X2)

>  <EC50 (nM)>
0.25

$$$$

Data request: Provide the documented EC50 with human somatostatin receptor subtype 2 (Homo sapiens) as the system for `CC[C@H](C)[C@@H]([C@@H](CC(=O)N1CCC[C@H]1[C@H](OC)[C@@H](C)C(=O)N[C@H](C)[C@@H](O)c1ccccc1)OC)N(C)C(=O)[C@@H](NC(=O)[C@H](C(C)C)N(C)C(=O)OCc1ccc(NC(=O)[C@H](CCCNC(N)=O)NC(=O)[C@@H](CC(=O)CCOCCNCCNc2ncc(-c3cc(C)cc(F)c3)c(N3CCC(N)CC3)c2-c2nc3ccc(Cl)cc3[nH]2)C(C)C)cc1C(=O)NCCN)C(C)C`
Data returned: 0.4
